Cited source: patent US20250002453A1

protocolText: Dynamic solubility test (water, SGF, FaSSIF, FeSSIF; 37° C.; 1, 4 and 24 hours)
Format: physicochemical
experimentalSetup: SGF, 37° C., 1 hr
measuredAttribute: S: Solubility (free concentration) (mg/mL)

compound | measuredAttribute | resultNumber
CCCCCCCC(=O)N[C@H](CN1CCCC1)[C@H](O)c1ccc2c(c1)OCCO2.CCCCCCCC(=O)N[C@H](CN1CCCC1)[C@H](O)c1ccc2c(c1)OCCO2.O=S(=O)(O)c1cccc2c(S(=O)(=O)O)cccc12 | S: Solubility (free concentration) | 2.7

A. CCCCCCCC(=O)N[C@H](CN1CCCC1)[C@H](O)c1ccc2c(c1)OCCO2.CCCCCCCC(=O)N[C@H](CN1CCCC1)[C@H](O)c1ccc2c(c1)OCCO2.O.O.O=S(=O)(O)c1cccc2c(S(=O)(=O)O)cccc12
B. CCCCCCCC(=O)N[C@H](CN1CCCC1)[C@H](O)c1ccc2c(c1)OCCO2 [Free crystalline form A, reference compound]
Exercise: Please indicate which has the smaller reported S: Solubility (free concentration): A , or B . Please respond with the label that marks your chosen entry.
Key: A
